Where these numbers come from: ChEMBL document CHEMBL3425405

assay: Binding affinity to ADAM10 A10-RNA QGRS (unknown origin) by microscale thermophoresis method
measuredParameter: Kd (µM)

[[record]]
smi = "CCn1c2ccccc2c2cc(/C=C/c3cc(N4CCN(C)CC4)c4ccccc4[n+]3C)ccc21.[I-]"
resultunit = "µM"
resultvalue = 4.9


###

test: Toxicity against human HeLa cells assessed as reduction in cell viability after 24 hrs by MTT assay; assay type: cell-based
measuredParameter: IC50 at 24 h

[[record]]
smi = "CN1CCN(c2cc(/C=C/c3cc([N+](=O)[O-])ccc3O)[n+](C)c3ccccc23)CC1"
resultvalue = "> 50 µM"

[[record]]
smi = "CCn1c2ccccc2c2cc(/C=C/c3cc(N4CCN(C)CC4)c4ccccc4[n+]3C)ccc21.[I-]"
resultvalue = "20.9 µM"

[[record]]
smi = "C[n+]1c(/C=C/c2cc([N+](=O)[O-])ccc2O)cc(N2CCOCC2)c2ccccc21"
resultvalue = "17.3 µM"

[[record]]
smi = "COc1cc(/C=C/c2ccc3ccccc3[n+]2C)ccc1N1CCOCC1"
resultvalue = "32.8 µM"

[[record]]
smi = "C[n+]1c(/C=C/c2ccccc2)ccc2ccccc21"
resultvalue = "> 50 µM"

[[record]]
smi = "COc1cc(/C=C/c2cc(N3CCN(C)CC3)c3ccccc3[n+]2C)cc(OC)c1O"
resultvalue = "> 50 µM"

[[record]]
smi = "CN1CCN(c2cc(/C=C/c3cc4ccccc4[nH]3)[n+](C)c3ccccc23)CC1"
resultvalue = "> 50 µM"

[[record]]
smi = "C[n+]1c(/C=C/c2cc3ccccc3[nH]2)ccc2ccccc21"
resultvalue = "> 50 µM"

[[record]]
smi = "C[n+]1c(/C=C/c2ccc(N3CCOCC3)cc2)ccc2ccccc21"
resultvalue = "43.4 µM"

[[record]]
smi = "CN1CCN(c2cc(/C=C/c3ccc(N4CCOCC4)cc3)[n+](C)c3ccccc23)CC1"
resultvalue = "> 50 µM"

[[record]]
smi = "CN1CCN(c2cc(/C=C/c3ccccc3)[n+](C)c3ccccc23)CC1"
resultvalue = "> 50 µM"


###

assay: Toxicity against APP expressing HEK cells assessed as reduction in cell viability after 48 hrs by MTT assay; type: cell-based, HEK293; conditions: human
measuredParameter: IC50 at 48 h (µM)

[[record]]
smi = "CN1CCN(c2cc(/C=C/c3ccccc3)[n+](C)c3ccccc23)CC1"
resultunit = "µM"
qual = "="
resultvalue = 36.3

[[record]]
smi = "C[n+]1c(/C=C/c2ccc(N3CCOCC3)cc2)ccc2ccccc21"
resultunit = "µM"
qual = "="
resultvalue = 23.3

[[record]]
smi = "CN1CCN(c2cc(/C=C/c3cc4ccccc4[nH]3)[n+](C)c3ccccc23)CC1"
resultunit = "µM"
qual = "="
resultvalue = 18.6

[[record]]
smi = "CN1CCN(c2cc(/C=C/c3ccc(N4CCOCC4)cc3)[n+](C)c3ccccc23)CC1"
resultunit = "µM"
qual = "="
resultvalue = 29.3

[[record]]
smi = "COc1cc(/C=C/c2ccc3ccccc3[n+]2C)ccc1N1CCOCC1"
resultunit = "µM"
qual = "="
resultvalue = 49.1

[[record]]
smi = "CN1CCN(c2cc(/C=C/c3cc([N+](=O)[O-])ccc3O)[n+](C)c3ccccc23)CC1"
resultunit = "µM"
qual = "="
resultvalue = 21.5

[[record]]
smi = "CCn1c2ccccc2c2cc(/C=C/c3cc(N4CCN(C)CC4)c4ccccc4[n+]3C)ccc21.[I-]"
resultunit = "µM"
qual = "="
resultvalue = 10.7

[[record]]
smi = "C[n+]1c(/C=C/c2cc3ccccc3[nH]2)ccc2ccccc21"
resultunit = "µM"
qual = "="
resultvalue = 12.4

[[record]]
smi = "C[n+]1c(/C=C/c2ccccc2)ccc2ccccc21"
resultunit = "µM"
qual = ">"
resultvalue = 50

[[record]]
smi = "COc1cc(/C=C/c2cc(N3CCN(C)CC3)c3ccccc3[n+]2C)cc(OC)c1O"
resultunit = "µM"
qual = "="
resultvalue = 25.8


###

Recorded Kd values for a group of compounds are listed next.
assay: Binding affinity to 5'-end biotinylated ADAM10 A10-RNA QGRS (unknown origin) by surface plasmon resonance assay method
measuredParameter: Kd (µM)

[[record]]
smi = "CN1CCN(c2cc(/C=C/c3cc([N+](=O)[O-])ccc3O)[n+](C)c3ccccc23)CC1"
qual = "="
resultvalue = 16.3

[[record]]
smi = "CCn1c2ccccc2c2cc(/C=C/c3cc(N4CCN(C)CC4)c4ccccc4n3)ccc21"
qual = ">"
resultvalue = 50

[[record]]
smi = "CN1CCN(c2cc(/C=C/c3ccc(N4CCOCC4)cc3)nc3ccccc23)CC1"
qual = "="
resultvalue = 47.6

[[record]]
smi = "COc1cc(/C=C/c2cc(N3CCCCC3)c3ccccc3[n+]2C)cc(OC)c1O"
qual = "="
resultvalue = 25

[[record]]
smi = "COc1cc(/C=C/c2cc(N3CCN(C)CC3)c3ccccc3[n+]2C)cc(OC)c1O"
qual = "="
resultvalue = 16.5

[[record]]
smi = "CCn1c2ccccc2c2cc(/C=C/c3ccc4ccccc4n3)ccc21"
qual = ">"
resultvalue = 50

[[record]]
smi = "C[n+]1c(/C=C/c2cc3ccccc3[nH]2)ccc2ccccc21"
qual = "="
resultvalue = 3.4

[[record]]
smi = "COc1cc(/C=C/c2cc(N3CCOCC3)c3ccccc3[n+]2C)cc(OC)c1O"
qual = "="
resultvalue = 27.1

[[record]]
smi = "CCn1c2ccccc2c2cc(/C=C/c3cc(N4CCN(CCO)CC4)c4ccccc4[n+]3C)ccc21"
qual = "="
resultvalue = 32.1

[[record]]
smi = "COc1cc(/C=C/c2ccc3ccccc3[n+]2C)cc(OC)c1OC"
qual = "="
resultvalue = 9.3

